The entries below are paired with their reported self-cleavage.
B1: CPEB3 Ribozyme (parent)
chain: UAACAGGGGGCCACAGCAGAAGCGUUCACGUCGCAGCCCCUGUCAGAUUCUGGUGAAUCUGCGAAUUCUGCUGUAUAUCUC

Variants of: B1
MEASUREMENT PROTOCOL: self-cleavage, relative activity (ratio to wild type); higher = more cleavage; in vitro, sequencing
Reply with just the number.

Consider the worked cases shown below.
[[record]]
polymer_sequence = "UAACAGGGGGCCACAGCAGAAGCGUUCACGUCGCAGCCCCUGUCAGAUUCUGGUGAAUCUGCGAAUACUGCUGUAUAACUC [U67A U78A]"
experimental_readout = "self-cleavage"
data_value = 0.64

[[record]]
polymer_sequence = "UAACAGGGGGCCACAGCAGAAGCGUUCACGUCGCAGCCCCUGUCAGAUUCUGGUGAAUCUGCGUGUUCUGCUGUAUAUCUC [A64U A65G]"
experimental_readout = "self-cleavage"
data_value = 0.25

[[record]]
polymer_sequence = "UAACAGGGGGCCCCAGCAGAAGCGUUCACGACGCAGCCCCUGUCAGAUUCUGGUGAAUCUGCGAAUUCUGCUGUAUAUCUC [A13C U31A]"
experimental_readout = "self-cleavage"
data_value = 0.38

[[record]]
polymer_sequence = "UAACAGGGGGCCACAGCAGAAGCGUUCACGUCGCAGCCCCUGUCAGAUUCUGGUGAAUCCGCGAAUUCUCCUGUAUAUCUC [U60C G70C]"
experimental_readout = "self-cleavage"
data_value = 0.27

[[record]]
polymer_sequence = "UAACAGGGGGCCACAGCAGAAGCGUUCACGUCGCAGCCCCUGUUAGAUUCUGGUAAAUCUGCGAAUUCUGCUGUAUAUCUC [C44U G55A]"
experimental_readout = "self-cleavage"
data_value = 0.07


Next:
## Input I'd like to know its self-cleavage. The variant in question is UAACAGGGGGCCACGGCAGAAGCGUUCACGUCGCAGCCCCUGUCAGAUUCUGGUGAAUCUGCGAAUUCUGCUGCAUAUCUC [A15G U74C]
## Output 1.21
